Reported pEC50 values are given for each entry in this list.
Biological target: human receptor found in pancreatic islet cells (Homo sapiens)
Sequence (Q7Z601 1-462): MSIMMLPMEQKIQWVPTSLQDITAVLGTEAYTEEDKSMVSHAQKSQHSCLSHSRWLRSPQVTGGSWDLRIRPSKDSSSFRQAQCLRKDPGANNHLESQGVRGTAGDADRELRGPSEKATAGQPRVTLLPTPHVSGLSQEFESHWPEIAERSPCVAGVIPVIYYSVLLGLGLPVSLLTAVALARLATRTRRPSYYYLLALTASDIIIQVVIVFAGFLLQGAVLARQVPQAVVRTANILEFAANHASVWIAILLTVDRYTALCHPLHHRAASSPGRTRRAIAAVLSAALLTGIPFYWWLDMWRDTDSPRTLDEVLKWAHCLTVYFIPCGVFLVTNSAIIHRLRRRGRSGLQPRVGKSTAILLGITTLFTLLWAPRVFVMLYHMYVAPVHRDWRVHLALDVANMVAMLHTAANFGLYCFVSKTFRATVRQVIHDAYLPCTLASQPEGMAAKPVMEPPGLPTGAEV
Experiment: Activation of intracellular IP3 signaling in transfected cells (Activation Assay)
Settings: calculated from IP3 concentration measurements in cells transfected with the human receptor
pEC50: −log10 of the molar value. Where a name gives a salt, the structure may show the parent alone.

A selection of reference data follows.
>>> df
                                   molecule    test_value
0  N[C@@H](Cc1ccccc1)C(=O)Nc1cc(-c2ccncc2)c[nH]c1=O [Example 25.2, diTFA]  5.00 to 6.00
1  CN(C(=O)[C@H](Cc1ccccc1)NCc1cscn1)c1cccc(-c2ccncc2)c1  5.00 to 6.00
2  CC(C)(C(=O)O)c1cc(NC(=O)[C@H](Cc2ccc(Cl)cc2)NCc2cscn2)cc(-c2ccncc2)c1  6.00 to 7.00
3  Cn1cc(-c2cccc(NC(=O)[C@H](Cc3ccccc3)NCc3cscn3)c2)cn1  6.00 to 7.00

Shifting focus to the molecule that follows.
I would be grateful if you could share the reported pEC50 for O=C(Nc1cccc(-c2ccncc2)c1)[C@@H](Cc1ccccc1)NCc1cscn1 [Example 34.5, trifluoroacetate] . 5.00 to 6.00
